- TARGET: CfEcR-DEF mutant F48R (Choristoneura fumiferana, UniProt O77255, F331R)
- Sequence (O77255 entry or part of it F331R): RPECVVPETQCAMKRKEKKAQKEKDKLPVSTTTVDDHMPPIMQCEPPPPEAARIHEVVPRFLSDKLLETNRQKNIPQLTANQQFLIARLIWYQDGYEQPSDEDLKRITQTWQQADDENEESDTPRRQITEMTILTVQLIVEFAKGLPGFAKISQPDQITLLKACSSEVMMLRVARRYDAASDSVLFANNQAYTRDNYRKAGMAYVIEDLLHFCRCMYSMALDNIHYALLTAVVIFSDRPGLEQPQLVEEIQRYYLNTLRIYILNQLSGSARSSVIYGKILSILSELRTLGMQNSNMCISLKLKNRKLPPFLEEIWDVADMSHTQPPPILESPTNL
- Sequence (P28702 299-449, further chain): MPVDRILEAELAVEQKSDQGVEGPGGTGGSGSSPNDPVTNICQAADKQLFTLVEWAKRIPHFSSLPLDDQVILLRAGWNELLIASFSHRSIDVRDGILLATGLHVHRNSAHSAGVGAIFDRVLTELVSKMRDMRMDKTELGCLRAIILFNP
- ASSAY_EXPLANATION: GAL4-driven luciferase reporter assay in NIH3T3 cells
ASSAY_ENDPOINT: pEC50
Field pEC50 (float): negative decimal logarithm of the concentration in molar.

INSERT INTO measurements (compound, measured_value) VALUES
  ('CCCCC(N(NC(=O)c1ccc(CC)cc1)C(=O)c1cc(C)cc(C)c1)C(C)(C)C (stereo not drawn)', 5.45);

Prompt: Entry "CCc1c(OC)cccc1C(=O)NN(C(=O)c1cc(C)cc(C)c1)C(C)(C)C" , system CfEcR-DEF mutant F48R (Choristoneura fumiferana, UniProt O77255, F331R): what pEC50 was measured?
Completion: 5.14

* * *

- TARGET: CfEcR-DEF mutant M125E (Choristoneura fumiferana, UniProt O77255, M408E)
- Sequence (O77255 entry or part of it M408E, one chain of several): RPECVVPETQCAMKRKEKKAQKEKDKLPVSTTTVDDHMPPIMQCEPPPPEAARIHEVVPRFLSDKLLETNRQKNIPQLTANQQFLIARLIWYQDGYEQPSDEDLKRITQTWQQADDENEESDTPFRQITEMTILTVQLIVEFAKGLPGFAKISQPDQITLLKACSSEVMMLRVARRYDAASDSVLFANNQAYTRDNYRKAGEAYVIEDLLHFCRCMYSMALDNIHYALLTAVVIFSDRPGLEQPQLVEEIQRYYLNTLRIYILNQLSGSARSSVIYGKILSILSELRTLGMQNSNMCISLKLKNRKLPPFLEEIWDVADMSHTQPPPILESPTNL
- ASSAY_EXPLANATION: cell-based
- MEASUREMENT_SETUP: mutant M125E; read-out: EC50
- Protocol: This construct was prepared in the same way as in switch 1.1 above except wild-type CfEcR-DEF was replaced with mutant CfEcR-DEF comprising a ligand binding domain comprising a substitution mutation selected from Table 1 below. […] Reporter Assays: Cells were harvested 40 hours after adding ligands. […] Luciferase activity was measured using Dual-Luciferase reporter assay system from Promega Corporation following the manufacturer's instructions. […]
pEC50: −log10 of the molar value.
Reported pEC50 values for a set of molecules

INSERT INTO results (molecule, measured_value) VALUES
  ('CC(C)CC[C@@H](O)[C@](C)(O)[C@H]1CC[C@@]2(O)C3=CC(=O)[C@@H]4C[C@@H](O)[C@@H](O)C[C@]4(C)[C@H]3CC[C@]12C [PonA, ponasterone A]', '< 4.48');

--- query ---
Prompt: Recall the recorded pEC50 for CC(C)(O)CC[C@@H](O)[C@](C)(O)[C@H]1CC[C@@]2(O)C3=CC(=O)[C@@H]4C[C@@H](O)[C@@H](O)C[C@]4(C)[C@H]3CC[C@]12C [20E, 20-hydroxyecdysone] with CfEcR-DEF mutant M125E (Choristoneura fumiferana, UniProt O77255, M408E) and state it.
Completion: < 4.48

* * *

Reported pEC50 values for a set of molecules
- TARGET: CfEcR-DEF mutant T52M (Choristoneura fumiferana, UniProt O77255, T335M)
- ASSAY_EXPLANATION: GAL4-driven luciferase reporter assay in NIH3T3 cells
Scale explanation: pEC50 corresponds to minus log10 of a concentration expressed in moles per litre.

INSERT INTO measurements (molecule, assay_endpoint, measured_value) VALUES
  ('CCCCC(N(NC(=O)c1ccc(CC)cc1)C(=O)c1cc(C)cc(C)c1)C(C)(C)C (stereo not drawn)', 'pEC50', 5.30);

Prompt: Data request, read-out pEC50, for "CCc1c(OC)cccc1C(=O)NN(C(=O)c1cc(C)cc(C)c1)C(C)(C)C"
Completion: 5.17

* * *

- TARGET: CfEcR-DEF mutant T52Q (Choristoneura fumiferana, UniProt O77255, T335Q)
- ASSAY_EXPLANATION: GAL4-driven luciferase reporter assay in NIH3T3 cells
ASSAY_ENDPOINT: EC50
The answer consists of two parts: a number and, after it, its unit.

Solved entries (count: 2):
INSERT INTO results (compound, measured_value) VALUES
  ('CCc1c(C(=O)NN(C(=O)c2cc(OC)c(C)c(OC)c2)C(C=C(C)C(C)(C)C)C(C)(C)C)ccc2c1OCCO2 (stereo not drawn)', '20000 nM'),
  ('CCc1c(OC)cccc1C(=O)NN(C(=O)c1cc(C)cc(C)c1)C(C)(C)C', '2950 nM');

// next item, EC50 requested
Prompt: Query: EC50; subject: CCCCC(N(NC(=O)c1ccc(CC)cc1)C(=O)c1cc(C)cc(C)c1)C(C)(C)C (stereo not drawn)
Completion: 2000 nM

* * *

- TARGET: CfEcR-DEF mutant V107I/Y127E/G (Choristoneura fumiferana, UniProt O77255, INS541G/V390I/Y410E)
- Sequence (O77255 entry or part of it V390I/Y410E/INS541G, one chain of several): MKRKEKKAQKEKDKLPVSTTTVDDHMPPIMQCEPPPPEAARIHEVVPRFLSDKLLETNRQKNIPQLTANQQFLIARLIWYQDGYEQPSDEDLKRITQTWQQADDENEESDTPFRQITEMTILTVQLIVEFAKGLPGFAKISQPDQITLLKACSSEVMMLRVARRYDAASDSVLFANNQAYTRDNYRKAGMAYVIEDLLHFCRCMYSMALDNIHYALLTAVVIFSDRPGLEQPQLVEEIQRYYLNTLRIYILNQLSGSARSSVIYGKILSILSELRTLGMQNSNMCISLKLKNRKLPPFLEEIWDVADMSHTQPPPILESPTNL
- ASSAY_EXPLANATION: GAL4-driven luciferase reporter assay in NIH3T3 cells
- Assay type: cell-based
- MEASUREMENT_SETUP: mutant V107I/Y127E/G; read-out: EC50
ASSAY_ENDPOINT: pEC50
Please treat pEC50 as minus the base-10 logarithm of the molar concentration.

Prompt: For the compound shown here, "CC(C)CC[C@@H](O)[C@](C)(O)[C@H]1CC[C@@]2(O)C3=CC(=O)[C@@H]4C[C@@H](O)[C@@H](O)C[C@]4(C)[C@H]3CC[C@]12C" , give the reported pEC50.
Completion: 5.78

* * *

- TARGET: CfEcR-DEF mutant M125S (Choristoneura fumiferana, UniProt O77255, M408S)
- Sequence (P28702 299-449): as the sequence (P28702 299-449, further chain) above
- Sequence (O77255 entry or part of it M408S): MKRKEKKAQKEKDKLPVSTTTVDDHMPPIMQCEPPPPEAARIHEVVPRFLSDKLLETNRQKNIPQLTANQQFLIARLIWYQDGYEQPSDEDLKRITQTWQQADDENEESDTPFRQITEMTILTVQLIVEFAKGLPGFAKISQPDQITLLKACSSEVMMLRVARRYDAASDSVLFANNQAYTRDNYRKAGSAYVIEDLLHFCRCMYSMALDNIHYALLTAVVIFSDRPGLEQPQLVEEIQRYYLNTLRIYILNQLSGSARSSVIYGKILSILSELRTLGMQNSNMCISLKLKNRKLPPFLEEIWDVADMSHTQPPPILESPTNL
- ASSAY_EXPLANATION: GAL4-driven luciferase reporter assay in NIH3T3 cells
ASSAY_ENDPOINT: EC50 (nM)
Answer in nM, number only, no unit symbol.

INSERT INTO results (molecule, measured_value) VALUES
  ('CCc1c(OC)cccc1C(=O)NN(C(=O)c1cc(C)cc(C)c1)C(C)(C)C', 12300),
  ('CCCCC(N(NC(=O)c1ccc(CC)cc1)C(=O)c1cc(C)cc(C)c1)C(C)(C)C (stereo not drawn)', 1400);

Consider the record given below.
Prompt: Missing value: EC50, CfEcR-DEF mutant M125S (Choristoneura fumiferana, UniProt O77255, M408S), entry CCc1c(C(=O)NN(C(=O)c2cc(OC)c(C)c(OC)c2)C(C=C(C)C(C)(C)C)C(C)(C)C)ccc2c1OCCO2 (stereo not drawn) . Fill in?
Completion: 330

* * *

- TARGET: CfEcR-DEF mutant M219Y (Choristoneura fumiferana, UniProt O77255, M502Y)
- ASSAY_EXPLANATION: GAL4-driven luciferase reporter assay in NIH3T3 cells
# pEC50 values compiled below
pEC50 here: minus log base 10 of the concentration, concentration in moles per litre.

INSERT INTO results (compound, assay_endpoint, measured_value) VALUES
  ('CCc1c(OC)cccc1C(=O)NN(C(=O)c1cc(C)cc(C)c1)C(C)(C)C', 'pEC50', 6.09);

# evaluate next
Prompt: Write down the reported pEC50 of CCCCC(N(NC(=O)c1ccc(CC)cc1)C(=O)c1cc(C)cc(C)c1)C(C)(C)C (stereo not drawn) , test system: CfEcR-DEF mutant M219Y (Choristoneura fumiferana, UniProt O77255, M502Y).
Completion: 6.00

* * *

- TARGET: CfEcR-DEF mutant N119F/V96T (Choristoneura fumiferana, UniProt O77255, N402F/V379T)
- Sequence (O77255 entry or part of it V379T/N402F): as the sequence (O77255 entry or part of it M408S) above, with V161T, N184F, S190M counted along it
- Sequence (P28702 299-449, further chain): as the sequence (P28702 299-449, further chain) above
- ASSAY_EXPLANATION: cell-based
ASSAY_ENDPOINT: EC50

Completed entries (count: 2):
INSERT INTO results (molecule, target, assay_endpoint, measured_value) VALUES
  ('CCc1c(OC)cccc1C(=O)NN(C(=O)c1cc(C)cc(C)c1)C(C)(C)C [RG-102240]', 'CfEcR-DEF mutant N119F/V96T (Choristoneura fumiferana, UniProt O77255, N402F/V379T)', 'EC50', '~8 µM'),
  ('Cc1cc(C)cc(C(=O)N(NC(=O)c2cccc(C(C)C)c2C)C(C)(C)C)c1 [RG-102362]', 'CfEcR-DEF mutant N119F/V96T (Choristoneura fumiferana, UniProt O77255, N402F/V379T)', 'EC50', '~10 µM');

// moving on: another record for EC50
Prompt: Would you kindly share the measured EC50 for CCc1cccc(C(=O)NN(C(=O)c2cc(C)cc(C)c2)C(C)(C)C)c1C [RG-101691] ?
Completion: 3.63 µM

* * *

Recorded EC50 values for a group of compounds are listed next.
- TARGET: CfEcR-DEF mutant V107I/Y127E/G (Choristoneura fumiferana, UniProt O77255, INS541G/V390I/Y410E)
- ASSAY_EXPLANATION: GAL4-driven luciferase reporter assay in NIH3T3 cells
- Assay type: cell-based
Give just the numeric value; nM need not be written.

INSERT INTO results (compound_smiles, assay_endpoint, measured_value) VALUES
  ('CCc1c(OC)cccc1C(=O)NN(C(=O)c1cc(C)cc(C)c1)C(C)(C)C', 'EC50', 170),
  ('Cc1cc(C)cc(C(=O)N(NC(=O)c2cccc(C(C)C)c2C)C(C)(C)C)c1', 'EC50', 60);

Would you kindly look at the next entry?
Prompt: Which EC50 is listed for "CCc1cccc(C(=O)NN(C(=O)c2cc(C)cc(C)c2)C(C)(C)C)c1C" ?
Completion: 20

* * *

- TARGET: CfEcR-DEF mutant F48Y (Choristoneura fumiferana, UniProt O77255, F331Y)
- Sequence (O77255 entry or part of it F331Y, one chain of several): as the sequence (O77255 entry or part of it M408E, one chain of several) above, with F125Y, E202M counted along it
- ASSAY_EXPLANATION: cell-based
Readings of EC50 for the listed molecules
Lab book: enter the figure in nM, no units written.

INSERT INTO measurements (molecule, target, measured_value) VALUES
  ('CCc1cccc(C(=O)NN(C(=O)c2cc(C)cc(C)c2)C(C)(C)C)c1C [RG-101691]', 'CfEcR-DEF mutant F48Y (Choristoneura fumiferana, UniProt O77255, F331Y)', 930);

Prompt: What value of EC50 has been reported for the following molecule? CCc1c(OC)cccc1C(=O)NN(C(=O)c1cc(C)cc(C)c1)C(C)(C)C [RG-102240]
Completion: 1270

Prompt: Please look up its EC50: Cc1cc(C)cc(C(=O)N(NC(=O)c2cccc(C(C)C)c2C)C(C)(C)C)c1 [RG-102362]
Completion: 590
